system: T-47D breast; assay: NCI-60 one-dose screen, 48 h (100 = growth as untreated, 0 = no growth, -100 = all killed); details: 10 µM unless noted
Compounds without any hit were thinned out: in the full panel of roughly 83,000, 20% have a hit. Active and inactive are the calls of the source. How the source made its calls: active means growth percent below 10; inactive means the rest.

molecule	growth
N#Cc1c(-c2ccccc2)cc(-c2ccccc2)n(CCC(=O)O)c1=O	44.1% (inactive)
NS(=O)(=O)c1ccc(-n2nc(-c3ccc(Br)cc3)ccc2=O)cc1	77% [100 µM] (inactive)
CO[C@H]1/C=C/O[C@@]2(C)Oc3c(C)c(O)c4c(O)c(c(/C=N/N5C(C)CN(Cc6ccc(C#N)cc6)CC5C)c(O)c4c3C2=O)NC(=O)/C(C)=C\C=C\[C@H](C)[C@H](O)[C@@H](C)[C@@H](O)[C@@H](C)[C@H](OC(C)=O)[C@@H]1C (some centres undefined)	18.1% (inactive)
CN(C)CCC(=O)Nc1ccc(-n2cc(-c3cccc(NC(=S)Nc4cccc(-c5cn(-c6ccc(NC(=O)CCN(C)C)cc6)nn5)c4)c3)nn2)cc1	69.1% (inactive)
